Recorded measurements of pIC50, one per entry
# TARGET ENTITY: hATX/ENPP2 (Homo sapiens, UniProt Q13822)
# ASSAY NAME: hATX/ENPP2 biochemical assay using 16:0-LPC as substrate (Amplex Red/choline oxidase/HRP fluorescence)
# CONDITION NOTES: hENPP2 2.5 nM, LPC (16:0) substrate
pIC50: −log10 of the molar value. Where a name gives a salt, the structure may show the parent alone.
OBSERVED PROPERTY: pIC50

# COMPOUND, READING
records = [
    ("CCc1nc2ccc(-c3cnc(C(=O)NC4CNC4)nc3)cn2c1N(C)c1nc(-c2ccc(F)cc2)c(C#N)s1 [Compound 50]", "6.70 to 7.70"),
    ("CCc1nc2ccc(-c3ccc(N4CCN(C(=O)NC5CNC5)CC4)nc3)cn2c1N(C)c1nc(-c2ccc(F)cc2)c(C#N)s1 [Compound 96 hydrochloride]", "6.70 to 7.70"),
    ("CCc1nc2ccc(-c3ccc(N4CCN(CC(=O)N5CC[C@H](O)C5)CC4)nc3)cn2c1N(C)c1nc(-c2ccc(F)cc2)c(C#N)s1 [Compound 91]", "≥ 7.70"),
    ("CCc1nc2ccc(-c3cnc(C(=O)N4CC[C@@H](O)C4)nc3)cn2c1N(C)c1nc(-c2ccc(F)cc2)c(C#N)s1 [Compound 49]", "6.70 to 7.70"),
    ("CCc1nc2ccc(-c3ccc(N4CCC(NC5CNC5)CC4)nc3)cn2c1N(C)c1nc(-c2ccc(F)cc2)c(C#N)s1 [Compound 89 hydrochloride]", "≥ 7.70"),
    ("CCc1nc2ccc(-c3cnc(C(=O)N4CCC(O)CC4)nc3)cn2c1N(C)c1nc(-c2ccc(F)cc2)c(C#N)s1 [Compound 15]", "6.70 to 7.70"),
]

----------
Reported Cmax is given for each of the following molecules.
# ASSAY NAME: Mouse PK study (IV and PO)
# Type: in vivo
# CONDITION NOTES: male, C57BL/6, mouse, plasma, po, 10 mg/kg, male C57BL/6 mice, PO group 10 mg/kg

# MOLECULE, MEASUREMENT UNIT, Cmax
measured = [
    ("CCc1nc2ccc(-c3ccc(N4CCC(C(=O)N5CCOCC5)CC4)nc3)cn2c1N(C)c1nc(-c2ccc(F)cc2)c(C#N)s1 [Compound 126]", "µg/mL", 5.58),
    ("CCc1nc2ccc(-c3cnc(N4CCN(C(=O)C5(C#N)CC5)CC4)nc3)cn2c1N(C)c1nc(-c2ccc(F)cc2)c(C#N)s1 [Compound 1]", "µg/mL", 3.03),
    ("CCc1nc2ccc(-c3ccc(N4CCC(C(=O)N5CCC(O)CC5)CC4)nc3)cn2c1N(C)c1nc(-c2ccc(F)cc2)c(C#N)s1 [Compound 119]", "µg/mL", 7.68),
    ("CCc1nc2ccc(-c3ccc(N4CCC(C(=O)N5CC(O)C5)CC4)nc3)cn2c1N(C)c1nc(-c2ccc(F)cc2)c(C#N)s1 [Compound 120]", "µg/mL", 8.47),
]

----------
We begin with a simple list: items and their reported pIC50.
# TARGET ENTITY: hATX/ENPP2 (Homo sapiens)
# ASSAY NAME: hATX/ENPP2 biochemical assay using 16:0-LPC as substrate (Amplex Red/choline oxidase/HRP fluorescence)
# CONDITION NOTES: hENPP2 2.5 nM, LPC (16:0) substrate
pIC50: −log10 of the molar value.

# MOLECULE SMILES, TARGET ENTITY, pIC50
records = [
    ("CCc1nc2ccc(-c3cnc(N4CCN(CC(=O)N5CC[C@@H](O)C5)CC4)nc3)cn2c1N(C)c1nc(-c2ccc(F)cc2)c(C#N)s1", "hATX/ENPP2 (Homo sapiens)", "≥ 7.70"),
    ("CCc1nc2ccc(-c3cnc(CC(=O)N4CC(O)C4)nc3)cn2c1N(C)c1nc(-c2ccc(F)cc2)c(C#N)s1", "hATX/ENPP2 (Homo sapiens)", "6.70 to 7.70"),
    ("CCc1nc2ccc(-c3cnc(N4CC(NC5CC5)C4)nc3)cn2c1N(C)c1nc(-c2ccc(F)cc2)c(C#N)s1", "hATX/ENPP2 (Homo sapiens)", "6.70 to 7.70"),
    ("CCc1nc2ccc(-c3ccc(N4CCC(C(=O)N5CC(O)C5)CC4)nc3)cn2c1N(C)c1nc(-c2ccc(F)cc2)c(C#N)s1", "hATX/ENPP2 (Homo sapiens)", "≥ 7.70"),
    ("CCc1nc2ccc(-c3cnc(C4CCN(C(=O)C5CCC5)CC4)nc3)cn2c1N(C)c1nc(-c2ccc(F)cc2)c(C#N)s1", "hATX/ENPP2 (Homo sapiens)", "6.70 to 7.70"),
    ("CCc1nc2ccc(-c3cnc(C(=O)N4CCCC4)nc3)cn2c1N(C)c1nc(-c2ccc(F)cc2)c(C#N)s1", "hATX/ENPP2 (Homo sapiens)", "6.70 to 7.70"),
    ("CCc1nc2ccc(-c3cnc(C(=O)N4CC(O)C4)nc3)cn2c1N(C)c1nc(-c2ccc(F)cc2)c(C#N)s1", "hATX/ENPP2 (Homo sapiens)", "6.70 to 7.70"),
]
